Each record here notes measured growth inhibition.
- assay: NCI Yeast Anticancer Drug Screen. Data for the rad50 strain (AID 155);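 further: 0% = growth of vehicle-only cultures of the same strain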
- settings: S. cerevisiae rad50 strain growth inhibition; at 50.0 µM; stronger effect = higher value
About 79,000 compounds went through this panel and 15% of them were active in at least one assay; those are over-represented in the sample as a whole.

compound | growth inhibition / %
CCCCCCC(=O)CCCC(C)CCCC(C)C (stereo not drawn) | -13.5
[O-]c1ccccc1/C=N/C(/N=C/c1ccccc1[O-])c1ccccc1O.[O-]c1ccccc1/C=N/C(/N=C/c1ccccc1[O-])c1ccccc1O.[Zr+4] | 0.55
O=C=NC(c1ccccc1)(c1ccccc1)c1ccccc1 | -4.25
COc1ccc(/C=C/C(=O)c2ccc(Cl)cc2)c(OC)c1 | 20.5
Cc1cc(N(CCC#N)CCC#N)ccc1/C=N/NC(=O)c1cc(Cl)ccc1O | -1.8
COc1ccc(/C=c2\[nH]c3nc(=O)c(N4CCOCC4)c(N)n3c2=O)cc1 | 0.9
CCCCC1C(=O)N(c2ccc(S(=O)(=O)Nc3ccccn3)cc2)N(c2ccc(O)c(C(=O)O)c2)C1=O (stereo not drawn) | 21.8
O=C(NC(CO)C(O)c1ccc([N+](=O)[O-])cc1)C(Cl)Cl (stereo not drawn) | -32.2
O=c1oc(-c2cccc([N+](=O)[O-])c2)nc2ccccc12 | 4.4
CCOC(=O)C(CNc1ccccc1)C(=O)OCC | -25.4
Cc1cccc(C2NC(=O)c3ccccc3N2)c1 (stereo not drawn) | 9.35
CCCCCCCCCCCCOc1ccc(C)cc1 | 5.45
CCN(CC)CCCOC(=O)N(Cc1ccc(Cl)cc1)C1CC1 | 51.2
COc1cc2c(c3c1c(=O)c1ccccc1n3C)C=C([N+](=O)[O-])C(C)(C)O2 | 1.4
CC1CCN(c2ccc([N+](=O)[O-])cc2)CC1 | -17.6
COc1cc(/C=N\Nc2ccccc2[N+](=O)[O-])cc(OC)c1OC | -11.4
N#Cc1c(N)oc(-c2cccc([N+](=O)[O-])c2)c1C#N | 24.6
COc1ccc(C(CCl)(CCl)c2ccc(OC)c(N)c2)cc1N | 12.3
Nc1ccccc1SC1CC(=O)N(c2ccccc2Cl)C1=O (stereo not drawn) | -18.4
C[Si](C)(CCl)N[Si](C)(C)CCl | -23.6
COC(=O)C(=O)C(C(=O)C(=O)Nc1ccc(Cl)c(Cl)c1)c1nc2ccc(C(=O)c3ccccc3)cc2[nH]c1=O (stereo not drawn) | 6.8
COc1cc(Oc2c(C)c(Cl)c(OC)c(Cl)c2OC)c2c(c1Cl)COC2=O | 28.5
CC(=O)C1=CCC2C3CC(C)=C4CC(O)CCC4(C)C3CCC12C (stereo not drawn) | 24.9

----------
- assay: NCI Yeast Anticancer Drug Screen. Data for the rad50 strain (AID 155);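 further: 0% = growth of vehicle-only cultures of the same strain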
- settings: S. cerevisiae rad50 strain growth inhibition; at 50.0 µM; stronger effect = higher value
This is part of a sample that, as a whole, favours compounds with a hit. Of some 79,000 tested, about 15% had one in any assay. Activity calls are given as the source filed them. Cut-off read from the data, not from the text of the source: active = growth inhibition above about 70%; inactive = the rest.
Property: growth inhibition; scope: individual molecules

molecule | growth inhibition
O=C1NC(=O)C(c2ccccc2)(C2CCC2)N1 (configuration not stated) | -6.95% (inactive)
C=CN1C(=O)N(C=C)C(C)(CC(C)C)C1=O (configuration not stated) | 3.6% (inactive)
S=c1[nH]nc(NC2CCCCC2)s1 | -4.4% (inactive)
O=C(O)/C=C\C(=O)Nc1ccccc1NC(=O)/C=C/C(=O)O | 3.45% (inactive)
Cc1ccc(OC2CC(n3cnc4ncnc(Cl)c43)OC2Oc2ccc(C)cc2)cc1 (configuration not stated) | 21% (inactive)
C[N+]12OC3CC1C1OC1C2C3 (configuration not stated) | -4.55% (inactive)
CC1CC(=O)N(N(C)C)C(C#N)(C#N)C1(C#N)C#N (configuration not stated) | 24.4% (inactive)
